biological target: MAGI2_6, Q86UL8; test: holdup assay; design: key: below the threshold = too weak to quantify, mostly under pKd 3.1 to 4; settings: plain residues with an end cap or a label only (N-terminal biotin on a linker: ado-ado)
Sequence (Q86UL8 1141-1229): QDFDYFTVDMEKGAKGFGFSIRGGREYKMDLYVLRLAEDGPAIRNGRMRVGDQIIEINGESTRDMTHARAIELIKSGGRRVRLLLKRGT
PARAMETER_MEASURED: pKd

• KKAPTNEFYA [SDC4, P31431] = below the threshold
• VDSTVKVWTC [TRAF7, Q6Q0C0] = below the threshold
• LPHGHSTTRV [NLGN4X, Q8N0W4] = below the threshold
• SSALYGESDL [ACTN2, P35609] = 5.05
• EALLQMESVA [CAVIN3, Q969G5] = below the threshold
• KSGKQTMLVV [TRIM29, Q14134;Q14134-2] = below the threshold
• DDPSTAETVL [ABCA7, Q8IZY2] = 3.83
• SKENVQETQI [LRRC4B, Q9NT99] = 3.92
